For each of the binders below, state its Ki.
# target.or.test.system: human α-thrombin (recombinant) (human, UniProt P00734 328-363; P00734 364-622)
# experimental.details: thrombin amidolytic assay with S2238, double reciprocal (Lineweaver-Burke) plot
# Description: Each data point is the mean±S.D. of at least three independent experiments. Thrombin amidolytic activity assays for all peptides were performed in 96-wells microtiter plates in 50 mM Tris buffer (pH 7.4) containing 100 mM NaCl and 1 mg/ml bovine serum albumin. […] The rates of formation of p-nitroaniline were followed by measuring the absorbance at 405 nm for 10 min with a Tecan InfinitePro M200 microplate reader from Tecan (Mannedorf, Switzerland). […]
Square brackets hold non-standard residues; d marks the D form. Ends that are not written are not given here. β3hR = N=C(N)NCCC[C@H](N)CC(=O)O
One number for each entry, in nM.

1. SGGHQTAVP[β3hR]ISKQGLGGDFEEIPSDEIIE [β-avathrin] = 32

Now let's try a different one.
Q: Entry SGGHQTAVPKIAKQGLGGDFEEIPSDEIIE [avathrin S12A] : reported Ki = ?
A: 6.08

The measurements presented in this section are drawn from patent US20190002511A1.
